# assay system: T1, recombinant His-tagged Der p1 (dust mite, UniProt P08176 99-320, limits assumed)
# T1 construct: Recombinant His-tagged protein made by the applicant; also called Der p1-His; Der pl; not shown: His tag
# T1 sequence (looked up): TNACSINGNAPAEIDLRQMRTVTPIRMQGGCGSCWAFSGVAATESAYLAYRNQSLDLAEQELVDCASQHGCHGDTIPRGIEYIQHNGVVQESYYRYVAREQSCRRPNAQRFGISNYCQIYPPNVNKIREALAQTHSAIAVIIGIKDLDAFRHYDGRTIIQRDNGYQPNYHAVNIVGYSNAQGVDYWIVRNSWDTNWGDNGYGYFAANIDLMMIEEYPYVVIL
# experimental protocol: ELISA, Der p1 on plate, biotinylated peptide at 30, duplicate 1
No end group written: not given here.
Give 1.0 when the value for OD450 is at least 0.8 OD450. Give 0.0 when it is less.

// query Check if OD450 >= 0.8 OD450 (inclusive). Item: GIHMALM (also: biotinylated, site not given here, 7-amino acid peptide from a phage display library) [SDAB22110-2-B2]
// result 0.0

// query Given VVAFGIS (also: biotinylated, site not given here, 7-amino acid peptide from a phage display library) [SDAB22110-2-G1] , state whether its OD450 is at least 0.8 OD450.
// result 0.0

// query Check if OD450 >= 0.8 OD450 (inclusive). Item: HSGPECG (also: biotinylated, site not given here, 7-amino acid peptide from a phage display library) [SDAB22110-2-D3]
// result 1.0
